All figures here come from patent US6734190B2.

targetDesc: B7-1/CD28 (Homo sapiens)
Sequence (P33681 35-242 limits assumed): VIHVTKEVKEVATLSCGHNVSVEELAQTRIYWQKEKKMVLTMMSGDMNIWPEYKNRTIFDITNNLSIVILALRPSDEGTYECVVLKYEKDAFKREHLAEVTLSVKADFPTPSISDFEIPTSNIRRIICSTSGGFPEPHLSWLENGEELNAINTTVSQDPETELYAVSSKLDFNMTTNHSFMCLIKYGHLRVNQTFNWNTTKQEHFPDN
procedureText: CD28/B7-1 ELISA (B7-1/CD28 binding inhibition)
settings: CD28-Fc coated wells; B7-1-Fc-biotin/streptavidin-alkaline phosphatase detection complex; 1% DMSO
resultType: IC50 (nM)
Give the value in nM but do not write nM after it.

Cn1ncc2c3[nH]n(-c4cccc(C(=O)N5CCOCC5)c4)c(=O)c3c(-c3cccc(C(F)(F)F)c3)nc21 : 54
Cn1ncc2c3[nH]n(-c4ccc(C(=O)Nc5ccc(CO)cc5)cc4)c(=O)c3c(-c3cccc(C(F)(F)F)c3)nc21 : 44
Cn1ncc2c3[nH]n(-c4ccc(S(=O)(=O)NCc5ccccc5)cc4)c(=O)c3c(-c3cccc(C(F)(F)F)c3)nc21 : 1500
Cn1ncc2c3[nH]n(-c4ccc(C(=O)N5CCSC5)cc4)c(=O)c3c(-c3cccc(C(F)(F)F)c3)nc21 : 110
Cn1ncc2c3[nH]n(-c4ccc(C(=O)Nc5cccnc5)cc4)c(=O)c3c(-c3cccc(C(F)(F)F)c3)nc21 : 180

Sure, the documented IC50 for `COC(CN(C)C(=O)c1ccc(-n2[nH]c3c(c(-c4cccc(C(F)(F)F)c4)nc4c3cnn4C)c2=O)cc1)OC` is 170

Sure, the documented IC50 for `Cn1ncc2c3[nH]n(-c4ccc(F)c(C(=O)Nc5ccc(CO)cc5)c4)c(=O)c3c(-c3cccc(C(F)(F)F)c3)nc21` is 370
